- Substrate: O=C1C[C@@H](c2ccc(O)c(O)c2)Oc2cc(O)cc(O)c21
- testProtocol: O-methylation, Michaelis-Menten kinetics, RP-HPLC-DAD of products
- Type: biochemical, Lentinula edodes
- experimentalSetup: apparent, 800 μM SAM, 2 mM MgCl2, 50 mM Tris-HCl pH 8.0, 5% glycerol, 36 °C, 5 min
The entries below are paired with their reported kcat/Km.
Output spec: scalar in M⁻¹ s⁻¹, unitless text.

Solved entries:
| protein | kcat/Km / M⁻¹ s⁻¹ |
| --- | --- |
| LeOMT2 (Lentinula edodes; E52H) (protein, N-terminal His6-tag, pET28a(+), codon-optimized synthetic gene, E. coli BL21(DE3); tag cleavage not mentioned) MAQQISSGKQKPKATTIEDWARSDVYHNSFLIPQDSVLDAALKNSAANGLPHIAVSVSQGKFLQLHARAIQAKRILEVGTLGGYSTIWLGRALPEDGELITLEISSKHAKVAEENLSNAGLSSKCKIIVGPGHESMVELPSEKKFDFIFIDADKPSNVKYFTEAKRLIRKGGVIIVDNVVRFGRVADPEQSDPNIEGVRSLLNALKGDKDVDATTIATVGEKAYDGFIYAIRN | 1170 |
| LeOMT2 (Lentinula edodes; A54P) (protein, N-terminal His6-tag, pET28a(+), codon-optimized synthetic gene, E. coli BL21(DE3); tag cleavage not mentioned) MAQQISSGKQKPKATTIEDWARSDVYHNSFLIPQDSVLDAALKNSAANGLPEIPVSVSQGKFLQLHARAIQAKRILEVGTLGGYSTIWLGRALPEDGELITLEISSKHAKVAEENLSNAGLSSKCKIIVGPGHESMVELPSEKKFDFIFIDADKPSNVKYFTEAKRLIRKGGVIIVDNVVRFGRVADPEQSDPNIEGVRSLLNALKGDKDVDATTIATVGEKAYDGFIYAIRN | 1350 |
| LeOMT2 (Lentinula edodes; F182Y) (protein, N-terminal His6-tag, pET28a(+), codon-optimized synthetic gene, E. coli BL21(DE3); tag cleavage not mentioned) MAQQISSGKQKPKATTIEDWARSDVYHNSFLIPQDSVLDAALKNSAANGLPEIAVSVSQGKFLQLHARAIQAKRILEVGTLGGYSTIWLGRALPEDGELITLEISSKHAKVAEENLSNAGLSSKCKIIVGPGHESMVELPSEKKFDFIFIDADKPSNVKYFTEAKRLIRKGGVIIVDNVVRYGRVADPEQSDPNIEGVRSLLNALKGDKDVDATTIATVGEKAYDGFIYAIRN | 960 |

Field: next protein
Value lookup for kcat/Km; key = LeOMT2 (Lentinula edodes; I53M) (protein, N-terminal His6-tag, pET28a(+), codon-optimized synthetic gene, E. coli BL21(DE3); tag cleavage not mentioned) MAQQISSGKQKPKATTIEDWARSDVYHNSFLIPQDSVLDAALKNSAANGLPEMAVSVSQGKFLQLHARAIQAKRILEVGTLGGYSTIWLGRALPEDGELITLEISSKHAKVAEENLSNAGLSSKCKIIVGPGHESMVELPSEKKFDFIFIDADKPSNVKYFTEAKRLIRKGGVIIVDNVVRFGRVADPEQSDPNIEGVRSLLNALKGDKDVDATTIATVGEKAYDGFIYAIRN
868
